Molecular target: T1, TNFR1 (Homo sapiens, UniProt P19438)
T1 chain: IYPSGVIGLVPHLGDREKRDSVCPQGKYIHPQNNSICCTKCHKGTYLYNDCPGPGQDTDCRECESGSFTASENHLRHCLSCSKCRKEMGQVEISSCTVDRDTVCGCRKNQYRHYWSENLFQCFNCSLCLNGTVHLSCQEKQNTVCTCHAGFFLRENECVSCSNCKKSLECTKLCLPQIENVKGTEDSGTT
Test: yeast display SC50
measurement kind: apparent Kd (screen) (nM)

Field: example entries. Status: answers known.
R13I (designed binder) MTLQELLREEALIRAEAEAFRYALELLAEKFPEQKEYLLDLAEEIESQIRSLSGVDVEDVRKFLDKEWAWVKELLAEHPAELAEVEAARAARLAELRAEVEAKVAA    0.368
L27H (designed binder) MTLQELLREEALRRAEAEAFRYALELHAEKFPEQKEYLLDLAEEIESQIRSLSGVDVEDVRKFLDKEWAWVKELLAEHPAELAEVEAARAARLAELRAEVEAKVAA    0.869
R61F (designed binder) MTLQELLREEALRRAEAEAFRYALELLAEKFPEQKEYLLDLAEEIESQIRSLSGVDVEDVFKFLDKEWAWVKELLAEHPAELAEVEAARAARLAELRAEVEAKVAA    1.05
G54V (designed binder) MTLQELLREEALRRAEAEAFRYALELLAEKFPEQKEYLLDLAEEIESQIRSLSVVDVEDVRKFLDKEWAWVKELLAEHPAELAEVEAARAARLAELRAEVEAKVAA    0.653
L6T (designed binder) MTLQETLREEALRRAEAEAFRYALELLAEKFPEQKEYLLDLAEEIESQIRSLSGVDVEDVRKFLDKEWAWVKELLAEHPAELAEVEAARAARLAELRAEVEAKVAA    10.4

(a) A87K (designed binder) MTLQELLREEALRRAEAEAFRYALELLAEKFPEQKEYLLDLAEEIESQIRSLSGVDVEDVRKFLDKEWAWVKELLAEHPAELAEVEKARAARLAELRAEVEAKVAA
(b) W70R (designed binder) MTLQELLREEALRRAEAEAFRYALELLAEKFPEQKEYLLDLAEEIESQIRSLSGVDVEDVRKFLDKEWARVKELLAEHPAELAEVEAARAARLAELRAEVEAKVAA
Exercise: // max by apparent Kd (screen) over [ a , b ] Returns: label corresponding to the selected item.
Key: b
(b: 12.5 nM, a: 0.49 nM)
